Hey, just so you know, these numbers are from PubChem BioAssay (NCI).

test system: OVCAR-5 ovarian; assay: NCI-60 one-dose screen, 48 h; details: 10 µM unless noted
The panel holds about 83,000 compounds, 20% with a hit somewhere; the sample as a whole holds those more often. Active and inactive are the calls of the source. The calls were made as follows: active = growth percent below 10; inactive = the rest.
Hi! Could you answer with just one of these? active, inactive

INPUT: What classification did `CCOC(=O)[C@H](CSSc1ncnc2cc[nH]c12)NC(=O)[C@@H](C)c1ccc2cc(OC)ccc2c1` end up with in this test?
OUTPUT: inactive

INPUT: Query: recorded result category for CCC(c1cccc(Br)c1)C(C(=O)O)c1ccc(OC)cc1 (configuration not stated) in this test
OUTPUT: inactive

INPUT: Test call, this molecule: `COc1cc(CCn2nnc3c(Nc4ccc(N5CCOCC5)cc4)ncnc32)cc(OC)c1`
OUTPUT: inactive

INPUT: # lookup: test call for `O=S(=O)(NCCCNc1cc(-c2cn(-c3ccccc3)nc2-c2cccc(O)c2)ccn1)c1ccc(Br)cc1`
OUTPUT: inactive

INPUT: Hi team, can someone confirm the assay call for `CC(=O)OC[Si](C)(C)c1ccccc1` ?
OUTPUT: inactive

====

test system: SK-OV-3 ovarian; test: NCI-60 one-dose screen, 48 h (100 = growth as untreated, 0 = no growth, -100 = all killed); conditions: 10 µM unless noted
This is part of a sample that, as a whole, favours compounds with a hit. Of some 83,000 tested, about 20% had one in any assay. Calls of active or inactive are those of the source. How the source made its calls: active means growth percent below 10; inactive means the rest.
Overview of recorded growth for various molecules

COc1ccc(N=C2NN=C(c3ccc(F)cc3)CS2)cc1OC 104% (inactive)
CNC(=O)Cc1nc(-c2cccc(NS(=O)(=O)c3c(F)cccc3F)c2F)c(-c2ccnc(Nc3ccccc3)n2)s1 29.9% (inactive)
CC(C)(C)OC(=O)N1C/C(=C\c2cccs2)C(=O)/C(=C/c2cccs2)C1 90.1% (inactive)
COc1ccc(/C=C/C(=O)c2cc(OC)c(OC)c(OC)c2)cc1OCc1cn(Cc2ccc(F)cc2)nn1 76.6% (inactive)
NC(=O)c1ccc2c(c1)OCO2 130% (inactive)

The molecule listed as `O=S(=O)(O)CCl` shows growth equal to 107% (inactive)

====

test system: MALME-3M melanoma; assay: NCI-60 one-dose screen, 48 h (100 = growth as untreated, 0 = no growth, -100 = all killed); details: 10 µM unless noted
The panel holds about 83,000 compounds, 20% with a hit somewhere; the sample as a whole holds those more often.
quantity: growth (%)
Numbers only; they are read as %.

These recorded examples may help you get a feel for the data.
Cn1c(=O)c2c(nc3n2CCN(CCc2ccc(OCCN4CCOCC4)cc2)C3)n(C)c1=O 106
O=P([O-])(O)OP(=O)([O-])O.[NH-][C@H]1CCCC[C@@H]1[NH-].[OH-].[OH-].[Pt+4] 111
COc1ccc(/C=C2\Oc3cc(OCCN4CCCC4)ccc3C2=O)c(OC)c1 102
COc1cc(Cn2c(SCC(=O)Nc3cc(OC)c(OC)c(OC)c3)nc3ccccc3c2=O)cc(OC)c1OC 82.8

Attention now shifts to the item below.
Lab note: measured growth of `Cc1sc(N=Nc2ccc(N(C)C)cc2)[n+]([O-])c1C` was 91.2

====

tested on: UO-31 renal; experiment: NCI-60 one-dose screen, 48 h (100 = growth as untreated, 0 = no growth, -100 = all killed); settings: 10 µM unless noted
The panel holds about 83,000 compounds, 20% with a hit somewhere; the sample as a whole holds those more often.
Listed below: growth values for each entry.
Please give a number only; it is taken to be in %.

// Nc1c(C(=O)Nc2cccc(C(F)(F)F)c2)sc2nc3c(cc12)C(O)CCC3 (stereo not given) : growth value = 49.9

Sure, the documented growth for `COc1ccc(NC(=O)c2cc3ccccc3nc2Nc2cc(OC)c(OC)c(OC)c2)cc1` is 59.7
